System Name: AKT1 E17K (Homo sapiens, UniProt P31749, E17K)
Construct: expressed in transfected cells; host or cells: HEK293
Sequence (P31749 whole entry E17K): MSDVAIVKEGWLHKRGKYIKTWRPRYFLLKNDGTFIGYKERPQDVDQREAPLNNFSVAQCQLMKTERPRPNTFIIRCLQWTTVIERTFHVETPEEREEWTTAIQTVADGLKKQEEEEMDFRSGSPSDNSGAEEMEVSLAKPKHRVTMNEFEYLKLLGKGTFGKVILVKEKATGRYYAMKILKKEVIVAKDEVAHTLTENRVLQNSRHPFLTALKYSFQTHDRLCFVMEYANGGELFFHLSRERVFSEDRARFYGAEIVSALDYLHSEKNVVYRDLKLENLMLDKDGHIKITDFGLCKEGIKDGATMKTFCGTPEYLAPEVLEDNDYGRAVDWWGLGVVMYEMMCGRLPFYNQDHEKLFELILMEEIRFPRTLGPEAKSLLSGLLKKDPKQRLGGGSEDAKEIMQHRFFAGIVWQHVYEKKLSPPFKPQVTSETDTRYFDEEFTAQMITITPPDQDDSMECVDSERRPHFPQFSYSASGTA
Method: Live cell AKT1 E17K target engagement by NanoBRET competitive probe displacement in HEK293 cells
Format: binding
Condition Summary: NanoBRET live cell target engagement, HEK293 cells, 2 h at 37° C.
Experimental Readout: IC50 (nM)
Give your result in nM as a bare value.

The examples below pair each entry with its known result.
Nc1ncccc1-c1nc2ccc(-n3cccn3)nc2n1-c1ccc2c(c1)CC[C@@H]2NC(=O)c1cc[nH]c(=O)c1 [Compound 318] = 181
Nc1ncccc1-c1nc2ccc(-n3cccn3)nc2n1-c1ccc2c(c1)CC[C@@H]2NC(=O)c1cncc(F)c1 [Compound 32] = 49
COc1cc(C(=O)N[C@H]2CCc3cc(-n4c(-c5cccnc5N)nc5ccc(-n6nccn6)nc54)ccc32)ccn1 [Compound 321] = 127
Nc1ncccc1-c1nc2ccc(-n3cccn3)nc2n1-c1ccc2c(c1)CC[C@@H]2n1cnnc1CC1CC1 [Compound 384] = 93.9
Nc1ncccc1-c1nc2ccc(-n3cccn3)nc2n1-c1ccc2c(c1)CC[C@@H]2NC1CCN(c2cccnc2)CC1 [Compound 368] = 406

Response field IC50 (AKT1 E17K (Homo sapiens, UniProt P31749, E17K)) for item Cc1ccc(C(=O)N[C@H]2CCc3cc(-n4c(-c5cccnc5N)nc5ccc(-n6cccn6)nc54)ccc32)cn1 [Compound 26] : 26.8

Response field IC50 (AKT1 E17K (Homo sapiens, UniProt P31749, E17K)) for item Nc1ncccc1-c1nc2ccc(-n3cccn3)nc2n1-c1ccc2c(c1)CC[C@@H]2NC(=O)c1cncnc1C(F)F [Compound 116] : 157

Response field IC50 (AKT1 E17K (Homo sapiens, UniProt P31749, E17K)) for item Nc1ncccc1-c1nc2ccc(-n3cccn3)nc2n1-c1ccc2c(c1)CC[C@@H]2NC(=O)c1cnc(C(F)F)c(Cl)c1 [Compound 365] : 26.5
